These entries and their values trace back to patent US20210032365A1.

What pKd was measured for each of the following?
- assayed.target: T1, human C1s (human, UniProt P09871 16-688)
- T1 construct: also called hC1s; serum-derived human C1s (CompTech)
- T1 sequence: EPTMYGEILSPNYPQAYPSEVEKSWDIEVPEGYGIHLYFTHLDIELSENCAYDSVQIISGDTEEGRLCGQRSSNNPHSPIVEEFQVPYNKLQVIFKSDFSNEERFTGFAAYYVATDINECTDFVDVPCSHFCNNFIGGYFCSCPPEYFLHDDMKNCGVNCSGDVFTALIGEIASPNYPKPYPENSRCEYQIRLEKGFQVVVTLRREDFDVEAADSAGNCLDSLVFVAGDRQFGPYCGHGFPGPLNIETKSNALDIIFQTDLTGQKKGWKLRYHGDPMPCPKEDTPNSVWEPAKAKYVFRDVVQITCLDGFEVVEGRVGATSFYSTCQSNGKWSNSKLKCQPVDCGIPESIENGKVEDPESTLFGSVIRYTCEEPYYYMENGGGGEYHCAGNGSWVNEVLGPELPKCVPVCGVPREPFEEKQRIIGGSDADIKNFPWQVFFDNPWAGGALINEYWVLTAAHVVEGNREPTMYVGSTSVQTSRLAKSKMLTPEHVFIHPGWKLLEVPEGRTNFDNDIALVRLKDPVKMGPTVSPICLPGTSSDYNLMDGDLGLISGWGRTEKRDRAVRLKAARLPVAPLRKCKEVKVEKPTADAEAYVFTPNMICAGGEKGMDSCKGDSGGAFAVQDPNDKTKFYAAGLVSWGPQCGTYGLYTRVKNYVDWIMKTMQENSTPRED
- test.name: SPR, Ab captured; pH 7.4, 1.2 mM Ca
In textbook form, pKd equals minus log to base ten of the concentration in mol/L.

[in] Requested field: pKd. Item: C1_IPN92H0038-SG4GK/IPN93L0028-SK1 (antibody, human IgG4 S228P, kappa, name in Kabat numbering, V domains shown, also called IPN92H0038/IPN93L0028) VH: EVMLVESGGGLVKPGGSLRLSCAASGFTFSNYAMSWVRQAPGKGLEWVATISSGGSHTYYLDSVKHRFTISRDNSKDTLYLQMNSLRAEDTALYYCARLFTGHAMDYWGQGTLVTVSS VL: QIVLTQSPATLSLSPGERATLSCTASSSVSSSYLHWYQQKPGKAPKLWIYSTSNLASGVPSRFSGSGSGTDYTLTISSLQPEDFATYYCHQYHRHPPITFGQGTKLEIKR
[out] 8.63

[in] Entry C1_IPN92H0033-SG4GK/IPN93L0021-SK1 (antibody, human IgG4 S228P, kappa, name in Kabat numbering, V domains shown, also called IPN92H0033/IPN93L0021) VH: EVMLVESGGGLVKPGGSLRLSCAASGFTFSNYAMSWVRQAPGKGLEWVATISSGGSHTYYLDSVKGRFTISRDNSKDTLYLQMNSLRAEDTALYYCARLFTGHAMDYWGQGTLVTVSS VL: QIVLTQSPATLSLSPGERATLSCTASSSVSSSYLHWYQQKPGKAPKLWIYSTSNLASGVPSRFSGSGSGTDYTLTISSLQPEDFATYYCHQYHRLPPITFGQGTKLEIKR please
[out] 8.72

[in] Entry C1_IPN92H0033-SG4GK/IPN93L0023-SK1 (antibody, human IgG4 S228P, kappa, name in Kabat numbering, V domains shown, also called IPN92H0033/IPN93L0023) VH: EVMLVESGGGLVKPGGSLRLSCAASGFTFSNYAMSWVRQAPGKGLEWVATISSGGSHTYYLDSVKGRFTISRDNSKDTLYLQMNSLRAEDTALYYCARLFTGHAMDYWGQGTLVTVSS VL: QIVLTQSPATLSLSPGERATLSCTASSSVSSSYLHWYQQKPGKAPKLWIYSTSNLASGVPSRFSGSGSGTDYTLTISSLQPEDFATYYCHQYYRHPPITFGQGTKLEIKR please
[out] 8.49

[in] Entry C1_IPN92H0026-SG4GK/IPN93L0023-SK1 (antibody, human IgG4 S228P, kappa, name in Kabat numbering, V domains shown, also called IPN92H0026/IPN93L0023) VH: EVMLVESGGGLVKPGGSLRLSCAASGFTFSNYAMSWVRQAPGKGLEWVATISSGGSHTYYLDSVKHRFTISRDNSKDTLYLQMNSLRAEDTALYYCARLFTGYAMDYWGQGTLVTVSS VL: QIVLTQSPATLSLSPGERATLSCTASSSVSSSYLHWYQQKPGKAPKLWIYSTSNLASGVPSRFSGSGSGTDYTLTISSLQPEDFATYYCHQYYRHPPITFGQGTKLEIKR please
[out] 8.94

[in] Entry C1_IPN92H0048-SG4GK/IPN93L0024-SK1 (antibody, human IgG4 S228P, kappa, name in Kabat numbering, V domains shown, also called IPN92H0048/IPN93L0024) VH: EVMLVESGGGLVKPGGSLRLSCAASGHTFSNYAMSWVRQAPGKGLEWVATISSGGSHTYYLDSVKGRFTISRDNSKDTLYLQMNSLRAEDTALYYCARLFTGHAMDYWGQGTLVTVSS VL: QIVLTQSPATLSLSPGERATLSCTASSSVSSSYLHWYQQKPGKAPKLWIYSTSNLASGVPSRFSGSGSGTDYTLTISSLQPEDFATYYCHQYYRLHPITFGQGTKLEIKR please
[out] 8.50

[in] Entry C1_IPN92H0026-SG4GK/IPN93L0021-SK1 (antibody, human IgG4 S228P, kappa, name in Kabat numbering, V domains shown, also called IPN92H0026/IPN93L0021) VH: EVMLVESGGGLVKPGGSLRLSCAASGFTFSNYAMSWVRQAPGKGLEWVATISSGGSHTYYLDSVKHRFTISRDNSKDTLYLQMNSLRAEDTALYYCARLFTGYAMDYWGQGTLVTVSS VL: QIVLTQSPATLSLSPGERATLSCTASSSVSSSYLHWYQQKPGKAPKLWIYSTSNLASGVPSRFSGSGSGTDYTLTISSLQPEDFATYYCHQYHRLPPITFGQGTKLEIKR please
[out] 9.09

[in] Entry C1_IPN009VH2-SG4GK/IPN93L0029-SK1 (antibody, human IgG4 S228P, kappa, name in Kabat numbering, V domains shown, also called IPN009VH2/IPN93L0029) VH: EVMLVESGGGLVKPGGSLRLSCAASGFTFSNYAMSWVRQAPGKGLEWVATISSGGSHTYYLDSVKGRFTISRDNSKDTLYLQMNSLRAEDTALYYCARLFTGYAMDYWGQGTLVTVSS VL: QIVLTQSPATLSLSPGERATLSCTASSSVSSSYLHWYQQKPGKAPKLWIYSTSNLASGVPSRFSGSGSGTDYTLTISSLQPEDFATYYCHQYHRLHPITFGQGTKLEIKR please
[out] 7.74

[in] Entry C1_IPN92H0026-SG4GK/IPN93L0028-SK1 (antibody, human IgG4 S228P, kappa, name in Kabat numbering, V domains shown, also called IPN92H0026/IPN93L0028) VH: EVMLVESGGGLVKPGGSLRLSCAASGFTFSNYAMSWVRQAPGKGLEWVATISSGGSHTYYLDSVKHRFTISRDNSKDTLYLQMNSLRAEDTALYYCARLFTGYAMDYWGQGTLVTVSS VL: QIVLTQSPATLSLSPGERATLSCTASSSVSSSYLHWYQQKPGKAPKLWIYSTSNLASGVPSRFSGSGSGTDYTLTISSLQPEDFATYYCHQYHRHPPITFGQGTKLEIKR please
[out] 8.32
